Quick list: 5+ nucleoli phenotype percent effect per entry.
Test system: MCF10A
TEST PROTOCOL: 5+ nucleoli phenotype percent effect (relative to siNT 0% and siKIF11 100%); higher = more cells with five or more nucleoli
TEST SETTINGS: 20 nM; 72 h
Report the figure in % without appending any unit label.

Here are 3 sequences together with their reported answers.
Task: Form: Entry = UAACAGUCUACAGCCAUGGUCG [hsa-miR-132-3p] | System = MCF10A | 5+ nucleoli phenotype percent effect = ____
Result: -13.6

Task: # query: 5+ nucleoli phenotype percent effect | item UUUCUAUGUUAGUUGGAAG [hsa-miR-7159-3p] | system: MCF10A
Result: 0.357

Task: Form entry - test system: MCF10A; read-out: 5+ nucleoli phenotype percent effect; sequence: UAGCAGCACGUAAAUAUUGGCG [hsa-miR-16-5p]
Result: -19.3

More entries:
Task: Notebook: pull reported 5+ nucleoli phenotype percent effect for MCF10A, entry AUCCCACCUCUGCCACCA [hsa-miR-1260a]
Result: 24.8

Task: Give the reported 5+ nucleoli phenotype percent effect for UGUCUACAUUAAUGAAAAGAGC [hsa-miR-3618] (system: MCF10A).
Result: -1.03

Task: Request - read-out 5+ nucleoli phenotype percent effect | tested on MCF10A | sequence AACUGGCCCUCAAAGUCCCGCU [hsa-miR-193b-3p]
Result: -6.55

Task: Please tell me: 5+ nucleoli phenotype percent effect of ACUGGACUUGGAGGCAGAA [hsa-miR-378b] , system MCF10A?
Result: -14.2

Task: What 5+ nucleoli phenotype percent effect appears in the records for this sequence with MCF10A? UUGAUCUCGGAAGCUAAGC [hsa-miR-7641]
Result: 6.46

Task: Notebook: pull reported 5+ nucleoli phenotype percent effect for MCF10A, entry UACGGUGAGCCUGUCAUUAUUC [hsa-miR-433-5p]
Result: -4.1

Task: Which 5+ nucleoli phenotype percent effect is reported with MCF10A for this entry: UAGGCCUUUAGAUCACUUAAA [hsa-miR-1245b-5p] ?
Result: -5.02

Task: Form field - read-out: 5+ nucleoli phenotype percent effect; system: MCF10A; submitted item: AGGGGGAUGGCAGAGCAAAAUU [hsa-miR-5010-5p]
Result: -7.77

Task: Give 5+ nucleoli phenotype percent effect (MCF10A) of the following sequence: ACUUUCCUCACUCCCGUGAAGU [hsa-miR-3124-3p]
Result: 49.4

====

System: MCF10A
TEST PROTOCOL: one-nucleolus phenotype percent effect (relative to siNT 0% and siNOL11 100%); higher = more cells with one nucleolus (ribosome biogenesis inhibition)
TEST SETTINGS: 20 nM; 72 h
Entry flag: fulfilled if one-nucleolus phenotype percent effect reaches 20%; not fulfilled if it does not.

Task: Reported one-nucleolus phenotype percent effect reaches at least 20% for UGGGGGUGGUCUCUAGCCAAGG [hsa-miR-6842-5p] ?
Result: not fulfilled

---
Task: Quick check: does AUCUGUCUCGAUUGUUUCCAG [hsa-miR-6888-3p] have one-nucleolus phenotype percent effect greater than or equal to 20%?
Result: fulfilled

Task: Please indicate if the recorded one-nucleolus phenotype percent effect for AACUCUGUCUUCACUCAUGAGU [hsa-miR-3664-5p] meets or exceeds 20%.
Result: not fulfilled

Task: Reported one-nucleolus phenotype percent effect at or above 20%? GUAAGCAGGGGCUCUGGGUGA [hsa-miR-6792-5p]
Result: fulfilled

Task: Please tell me: is the sequence GUCCUCCAGGCCAUGAGCUGCGG [hsa-miR-4691-5p] at or over 20% in terms of one-nucleolus phenotype percent effect?
Result: not fulfilled

Task: Kindly determine if one-nucleolus phenotype percent effect recorded for AGAAGGCCUUUCCAUCUCUGU [hsa-miR-4493] is above or exactly 20%.
Result: fulfilled

Task: one-nucleolus phenotype percent effect >= 20% for UAGUACUGUGCAUAUCAUCUAU [hsa-miR-1278] ?
Result: not fulfilled

Task: # check: one-nucleolus phenotype percent effect of GAGAGGAACAUGGGCUCAGGACA [hsa-miR-6859-5p] is greater than or equal to 20%
Result: not fulfilled

Task: Given CAGCCACAACUACCCUGCCACU [hsa-miR-449b-3p] , state whether its one-nucleolus phenotype percent effect is at least 20%.
Result: not fulfilled

Task: Is one-nucleolus phenotype percent effect for AUAGUGGGAAGCUGGCAGAUUC [hsa-miR-4727-3p] at or above 20%?
Result: fulfilled

Task: Would you say UAAUUUUAUGUAUAAGCUAGU [hsa-miR-590-3p] shows one-nucleolus phenotype percent effect at minimum 20%?
Result: not fulfilled
